Listing of entries alongside the reported log10 of IC50.
target: human TLR7 (Homo sapiens); test: TLR7 inhibition reporter assay (HEK-Blue, SEAP); conditions: HEK-Blue cells overexpressing human TLR7, ligand gardiquimod 2.5 μM, 22 hour incubation
Sequence (Q9NYK1 27-1049): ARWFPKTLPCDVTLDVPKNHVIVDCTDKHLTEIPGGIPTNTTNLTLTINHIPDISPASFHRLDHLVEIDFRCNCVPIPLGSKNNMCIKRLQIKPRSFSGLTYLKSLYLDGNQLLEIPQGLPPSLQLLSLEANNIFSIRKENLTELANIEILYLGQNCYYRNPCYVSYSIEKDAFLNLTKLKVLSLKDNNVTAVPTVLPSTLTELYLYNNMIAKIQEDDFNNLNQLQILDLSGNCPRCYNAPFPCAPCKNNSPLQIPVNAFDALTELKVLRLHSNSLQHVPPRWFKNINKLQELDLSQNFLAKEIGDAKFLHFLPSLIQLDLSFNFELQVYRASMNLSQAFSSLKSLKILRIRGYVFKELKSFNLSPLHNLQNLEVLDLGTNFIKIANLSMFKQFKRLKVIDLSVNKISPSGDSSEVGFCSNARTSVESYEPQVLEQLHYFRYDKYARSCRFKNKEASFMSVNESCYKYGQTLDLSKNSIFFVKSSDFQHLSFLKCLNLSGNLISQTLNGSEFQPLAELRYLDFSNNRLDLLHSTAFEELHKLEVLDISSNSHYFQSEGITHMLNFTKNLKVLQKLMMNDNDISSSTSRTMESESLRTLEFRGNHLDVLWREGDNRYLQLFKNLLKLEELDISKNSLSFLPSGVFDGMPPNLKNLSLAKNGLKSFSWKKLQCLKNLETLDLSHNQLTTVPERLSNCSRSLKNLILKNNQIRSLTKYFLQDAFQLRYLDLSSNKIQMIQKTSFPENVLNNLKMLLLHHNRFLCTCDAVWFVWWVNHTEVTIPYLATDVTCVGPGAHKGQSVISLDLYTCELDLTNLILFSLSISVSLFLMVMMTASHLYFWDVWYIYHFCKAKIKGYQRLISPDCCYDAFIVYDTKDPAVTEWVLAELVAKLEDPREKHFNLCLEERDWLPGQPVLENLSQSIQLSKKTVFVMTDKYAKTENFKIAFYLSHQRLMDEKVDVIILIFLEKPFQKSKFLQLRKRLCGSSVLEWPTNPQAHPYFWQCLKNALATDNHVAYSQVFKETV
Parameter value (number): base-10 log of IC50 in nM.

Some solved cases for reference:
compound	test target	log10 of IC50
Cc1cc(C2CCN(C3CC4CCC(C3)N4C3CCC3)CC2)nc2c1nc(-c1ccc(S(C)(=O)=O)cc1)n2C (stereo not shown) [Example 32]	human TLR7 (Homo sapiens)	3.20
Cc1cc(-c2ccc(CN3CCC(N4CCOCC4)CC3)cc2)nc2c1nc(-c1ccc(S(C)(=O)=O)cc1)n2C1CC1 [Example 47]	human TLR7 (Homo sapiens)	4.18
COCCN1C[C@H]2C[C@H](N3CCC(c4cc(C)c5nc(-c6ccc(OC)c(OC)c6)n(C)c5n4)CC3)C[C@H]2C1 [Example 41]	human TLR7 (Homo sapiens)	2.68

Recorded log10 of IC50 (compound COc1ccc(-c2nc3c(C)cc(C4CCN([C@H]5C[C@@H]6CN(C7CCOCC7)C[C@@H]6C5)CC4)nc3n2C)cc1OC [Example 40] ): 3.11

// field: log10 of IC50; key: COc1ccc(-c2nc3c(C)cc(-c4ccc(N5CCN(C(C)C)CC5)cc4)nc3n2C)cc1OC [Example 10] ; value = 3.28

In plain terms, Cc1cc(C2CCN(C3CCN(CC(C)C)CC3)CC2)nc2c1nc(-c1ccc(S(C)(=O)=O)cc1)n2C [Example 21] has a documented log10 of IC50 of 3.64

* * *

biological target: human TLR9 (Homo sapiens); assay: TLR9 inhibition reporter assay (HEK-Blue, SEAP); settings: HEK-Blue cells overexpressing human TLR9, ligand ODN2006 200 nM, 22 hour incubation
Sequence (Q9NR96 26-1032): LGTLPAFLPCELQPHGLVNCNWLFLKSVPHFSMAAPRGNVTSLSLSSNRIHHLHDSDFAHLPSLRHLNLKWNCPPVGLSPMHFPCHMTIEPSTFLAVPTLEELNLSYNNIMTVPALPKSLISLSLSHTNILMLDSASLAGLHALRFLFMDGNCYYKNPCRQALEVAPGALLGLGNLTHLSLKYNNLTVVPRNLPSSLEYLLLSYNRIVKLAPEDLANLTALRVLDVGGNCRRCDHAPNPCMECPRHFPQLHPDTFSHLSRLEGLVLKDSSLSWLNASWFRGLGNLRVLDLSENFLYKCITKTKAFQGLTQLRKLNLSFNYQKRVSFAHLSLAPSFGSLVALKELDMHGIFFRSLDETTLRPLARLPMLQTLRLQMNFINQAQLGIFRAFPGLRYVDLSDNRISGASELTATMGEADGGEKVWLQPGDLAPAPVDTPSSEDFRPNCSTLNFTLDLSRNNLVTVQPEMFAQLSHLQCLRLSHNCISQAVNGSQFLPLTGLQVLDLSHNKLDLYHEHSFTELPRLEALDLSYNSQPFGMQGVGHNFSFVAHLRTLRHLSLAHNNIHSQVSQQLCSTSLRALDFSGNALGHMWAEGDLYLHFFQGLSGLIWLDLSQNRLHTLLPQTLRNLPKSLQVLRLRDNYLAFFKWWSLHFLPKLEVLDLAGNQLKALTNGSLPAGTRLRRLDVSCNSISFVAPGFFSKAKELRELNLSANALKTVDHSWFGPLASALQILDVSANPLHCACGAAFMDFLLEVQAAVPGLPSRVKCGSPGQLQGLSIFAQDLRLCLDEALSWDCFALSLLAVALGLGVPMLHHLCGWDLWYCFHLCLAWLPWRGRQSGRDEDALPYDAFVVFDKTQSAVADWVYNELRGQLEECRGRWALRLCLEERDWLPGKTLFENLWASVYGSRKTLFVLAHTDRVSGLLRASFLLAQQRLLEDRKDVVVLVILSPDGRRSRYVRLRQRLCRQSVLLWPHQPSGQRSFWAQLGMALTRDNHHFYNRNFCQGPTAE
readout: IC50 (nM)
Numeric answer only, unit nM assumed.

molecule	value units	IC50
COc1ccc(-c2nc3c(C)cc(-c4ccc(N5CCN(C(C)C)CC5)cc4)nc3n2C)cc1OC [Example 10]	nM	750
Cc1cc(C2CCN(C3CC4CCC(C3)N4C3CCC3)CC2)nc2c1nc(-c1ccc(S(C)(=O)=O)cc1)n2C (stereo not shown) [Example 33]	nM	69
Cc1cc(-c2ccc(CN3CC4(C3)CN(C3COC3)C4)cc2)nc2c1nc(-c1ccc(S(C)(=O)=O)cc1)n2C1CC1 [Example 6]	nM	730

Now for a further molecule.
Entry Cc1cc(-c2ccc(CN3CCC(N4CCCC4)CC3)cc2)nc2c1nc(-c1ccc(S(C)(=O)=O)cc1)n2C1CC1 [Example 2] — recorded IC50 = 100

* * *

Target: human TLR8 (Homo sapiens, UniProt Q9NR97)
Sequence (Q9NR97 27-1041): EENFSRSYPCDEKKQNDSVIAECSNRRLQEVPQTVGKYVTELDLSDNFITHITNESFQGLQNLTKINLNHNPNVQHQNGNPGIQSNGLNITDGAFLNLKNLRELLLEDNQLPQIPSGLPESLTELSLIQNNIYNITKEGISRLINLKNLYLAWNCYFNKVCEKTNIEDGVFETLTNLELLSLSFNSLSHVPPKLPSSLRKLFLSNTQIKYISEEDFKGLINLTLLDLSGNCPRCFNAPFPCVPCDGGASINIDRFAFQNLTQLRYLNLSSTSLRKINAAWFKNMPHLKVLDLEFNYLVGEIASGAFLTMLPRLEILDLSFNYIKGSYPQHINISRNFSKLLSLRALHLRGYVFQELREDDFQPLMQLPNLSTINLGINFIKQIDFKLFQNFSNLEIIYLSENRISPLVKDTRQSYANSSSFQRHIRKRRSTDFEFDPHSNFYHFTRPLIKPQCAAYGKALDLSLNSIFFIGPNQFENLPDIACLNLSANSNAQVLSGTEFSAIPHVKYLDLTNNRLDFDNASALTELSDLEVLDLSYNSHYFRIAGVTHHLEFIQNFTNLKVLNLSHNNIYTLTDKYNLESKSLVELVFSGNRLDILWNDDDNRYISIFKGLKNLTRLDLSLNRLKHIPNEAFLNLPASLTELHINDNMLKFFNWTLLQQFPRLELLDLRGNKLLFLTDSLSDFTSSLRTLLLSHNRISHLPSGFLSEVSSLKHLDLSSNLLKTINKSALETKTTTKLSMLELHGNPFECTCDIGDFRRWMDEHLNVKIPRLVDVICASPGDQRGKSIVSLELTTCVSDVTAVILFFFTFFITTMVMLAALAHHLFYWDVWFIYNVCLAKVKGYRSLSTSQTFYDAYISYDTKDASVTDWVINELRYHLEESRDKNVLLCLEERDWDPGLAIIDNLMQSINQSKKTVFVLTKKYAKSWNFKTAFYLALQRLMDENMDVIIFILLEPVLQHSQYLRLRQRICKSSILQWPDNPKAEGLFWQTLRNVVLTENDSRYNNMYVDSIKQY
Test: TLR8 inhibition reporter assay (HEK-Blue, SEAP)
Details: HEK-Blue cells overexpressing human TLR8, ligand R848 14.25 μM, 22 hour incubation
Reported IC50 values for the following compounds.

Solved cases (3 shown):
compound	IC50
COc1ccc(-c2nc3ccc(-c4ccc(N5CCN(C(C)C)CC5)cc4)nc3n2C)cc1OC	> 50 µM
COc1ccc(-c2nc3ncc(C4CCN(C5CCN(C6CC6)CC5)CC4)cc3[nH]2)cc1OC	> 25 µM
Cc1cc(C2CCN(C3CC4CCC(C3)N4CC3CC3)CC2)nc2c1nc(-c1ccc(S(C)(=O)=O)cc1)n2C (single isomer, unassigned) [Example 31]	19 µM

Here is another compound to look at.
Fill in: human TLR8 (Homo sapiens, UniProt Q9NR97) IC50 for `Cn1c(-c2ccc(S(C)(=O)=O)cc2)nc2ncc(C3CCN(C4CCN(C5CC5)CC4)CC3)cc21` = > 25 µM

FYI, the data here is from patent US20250177363A1.
